inhibition in vivo at 10 mg/kg overview
- System: gastric mucosal leasion
- Test summary: Cytoprotective action (gastric mucosal lesion by necrotizing agent 0.4N HCl+50% EtOH)
- Type: in vivo, Male Donryu rats
- Details: Rattus norvegicus, po; 10 mg/kg P.O., 30 minutes before 5 ml/kg 0.4N HCl+50% EtOH; stomach taken 1 hour after; read-out: Repression % (inhibition % of total area of gastric mucosal leasion vs control)
Give the value in % but do not write % after it.

Worked examples, 3 molecules total:
> print(dat)
                           molecular.string            target.entity  unit.descriptor  numeric.value
1  Cc1ccc(CSCC(=O)NCCCOc2cccc(CN3CCCCC3)c2)o1  gastric mucosal leasion                %             59
2  CC1CCN(Cc2cccc(OCCCNC(=O)CS(=O)(=O)Cc3ccoc3)c2)CC1  gastric mucosal leasion                %             60
3  O=C(CCCCCSCc1ccccc1)NCCCOc1cccc(CN2CCCCC2)c1  gastric mucosal leasion                %             61

Q: Need inhibition in vivo at 10 mg/kg, item `O=C(CSCc1ccc2ccccc2c1)NCCCOc1cccc(CN2CCCCC2)c1`
Ans: 60
